System Under Test: UniProt:P49281
Sequence (P49281 whole entry): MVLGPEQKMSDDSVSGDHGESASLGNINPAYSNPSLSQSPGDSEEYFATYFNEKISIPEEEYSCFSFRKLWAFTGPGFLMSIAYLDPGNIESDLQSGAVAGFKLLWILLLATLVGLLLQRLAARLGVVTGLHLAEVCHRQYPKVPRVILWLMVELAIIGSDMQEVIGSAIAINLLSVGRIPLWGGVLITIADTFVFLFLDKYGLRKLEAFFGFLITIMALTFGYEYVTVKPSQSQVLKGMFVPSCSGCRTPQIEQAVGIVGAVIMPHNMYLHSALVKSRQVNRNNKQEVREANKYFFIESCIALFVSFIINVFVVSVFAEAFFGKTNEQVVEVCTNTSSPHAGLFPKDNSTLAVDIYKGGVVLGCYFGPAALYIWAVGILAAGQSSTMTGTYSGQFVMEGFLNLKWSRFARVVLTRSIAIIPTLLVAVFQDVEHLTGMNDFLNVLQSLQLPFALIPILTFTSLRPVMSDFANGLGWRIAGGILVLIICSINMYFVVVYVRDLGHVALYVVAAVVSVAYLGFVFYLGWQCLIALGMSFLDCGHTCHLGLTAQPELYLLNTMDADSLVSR
Protocol Notes: Radioactive 55Fe uptake assay in HEK293 cells stably overexpressing DMT1

- Compound: "CC1CCc2sc(C(=O)O)cc2C1 (stereo not shown)"
  System Under Test: "UniProt:P49281"
  IC50 (µM): 525
